measurement protocol: NCI Yeast Anticancer Drug Screen. Data for the sgs1 mgt1 strain (AID 161)
study conditions: S. cerevisiae sgs1 mgt1 strain, at 50.0 µM
About 79,000 compounds went through this panel and 15% of them were active in at least one assay; those are over-represented in the sample as a whole. The source made the active and inactive calls. Cut-off read from the data, not from the text of the source: active = growth inhibition above about 70%; inactive = the rest.
Log the outcome using a class from active, inactive

# count of solved cases: 5
Prompt: How was CCCCCCCCN1C(=O)c2ccccc2S1(=O)=O classified in this test?
Completion: active

Prompt: How was O=c1c(SSc2coc3ccccc3c2=O)coc2ccccc12 classified in this test?
Completion: active

Prompt: How was O=C(NNc1ccccc1)c1cccc([N+](=O)[O-])c1 classified in this test?
Completion: active

Prompt: How was O=C1OC(CC(=O)c2ccccc2Cl)C(Cl)=C1Cl (configuration not stated) classified in this test?
Completion: inactive

Prompt: How was NC(=S)N/N=C\C12CC3CC(CC(C3)C1)C2 classified in this test?
Completion: active

Continuing:
Prompt: How was O=C(O)c1cc2oc(-c3ccccc3)cc2[nH]1 classified in this test?
Completion: inactive

Prompt: How was COc1c(O)cc2c(c1O)C(=O)C1=C(CCCC1)C2=O classified in this test?
Completion: inactive

Prompt: How was CC(=O)C1CCCCC1/C=C/[N+](=O)[O-] (configuration not stated) classified in this test?
Completion: active

Prompt: How was COc1ccc2c(c1)C(Br)CCC(Br)C2=O (configuration not stated) classified in this test?
Completion: active

Prompt: How was Clc1ccc(C2=NCON=C2c2ccc(Cl)cc2)cc1 classified in this test?
Completion: active

Prompt: How was CN1CCC(OC(=O)c2ccc3ncccc3c2)CC1 classified in this test?
Completion: inactive

Prompt: How was CSS(=O)(=O)c1ccc(C)cc1 classified in this test?
Completion: active

Prompt: How was COc1cc([C@H]2c3c(cc(OC)c(OC)c3OC)CC3COC(=O)[C@@H]32)cc2c1OCO2 (some centres not stated) classified in this test?
Completion: inactive

Prompt: How was CC(=O)NCC1OC2COC(c3ccccc3)OC2C(NC(=O)c2ccccc2)C1OC(=O)c1ccccc1 (configuration not stated) classified in this test?
Completion: inactive

Prompt: How was O=C(N/C(=C\c1ccccc1)C(=O)N1CCN(c2ccccc2)CC1)c1ccccc1 classified in this test?
Completion: active

Prompt: How was O=[N+]([O-])/C(C(Cl)=C(Cl)Cl)=C(/Nc1ccccc1)SCc1ccccc1 classified in this test?
Completion: inactive

Prompt: How was O=C(NNc1ccccc1)C(O)C(=O)C(O)C(O)C(O)CO (configuration not stated) classified in this test?
Completion: inactive

Prompt: How was CC(=O)C1=C(C)O/C(=C/c2ccc(Cl)cc2)C1=O classified in this test?
Completion: active

Prompt: How was CN(C)CCOC1OCN(C)CC1(C)C (configuration not stated) classified in this test?
Completion: inactive

Prompt: How was S=c1[nH]c2cc(Cl)ccc2s1.[Zn+2] classified in this test?
Completion: active

Prompt: How was S=c1sc2ccccc2n1C=Nc1ccccc1 classified in this test?
Completion: active

Prompt: How was Cc1ccc[n+](CC(=O)C2CCC3CC4CCCCC4CC3C2)c1 (configuration not stated) classified in this test?
Completion: inactive

Prompt: How was Cc1ccc(N=Nc2ccc(N)c3ccccc23)c(S(N)(=O)=O)c1 classified in this test?
Completion: inactive
